experiment: Toxicity against human MDA-MB-231 cells after 48 hrs by MTT assay; type: cell-based; conditions: read-out: MNCC
Readout type: MNTC at 48 h

Incoming: Suppose we examine the compound COc1cc(-c2cc(=O)c3c(O)cc(O)cc3o2)ccc1O ; what MNTC at 48 h value has been reported?
Outgoing: 25 µM
